Origin of values: paper PMC12305873

assay: Pharmacokinetic study in rats; details: Sprague Dawley, rat, in vivo, po, 250 mg/kg
Entries annotated with measured AUC
Reply with just the number (in µg·h/mL).

[
  {
    "Test Smiles": "O=c1oc2ccccc2c(O)c1C(c1ccc(Cl)cc1)c1c(O)c2ccccc2oc1=O",
    "AUC (µg·h/mL)": 4180
  }
]

Moving on to the next compound.
Field AUC (entry O=c1oc2ccccc2c(O)c1C(c1cccc(Cl)c1)c1c(O)c2ccccc2oc1=O ) reads 1090

---

Listing: CC50 of selected molecules
assay: Cytotoxicity assay alongside the replicon assay; settings: hamster
Number in µM, nothing else.

[
  {
    "Test Smiles": "O=c1oc2ccccc2c(O)c1C(c1ccc(Cl)cc1)c1c(O)c2ccccc2oc1=O",
    "CC50 [µM]": 79.9
  }
]

Next molecule, please.
Field CC50 (entry O=c1oc2ccccc2c(O)c1C(c1cccc(Cl)c1)c1c(O)c2ccccc2oc1=O ) reads 101
